Origin of measurements: paper PMC8603191

Test system: human A1AR
Experiment: Radioligand binding assay, displacement of [3H]DPCPX
Details: A1AR versus A2AAR, from Ki values
Method: Radioligand binding assays. HEK293 cells expressing the human A1- or A2AARs were cultured in DMEM supplemented with 10% fetal bovine serum, 100 Units/ml penicillin, 100 µg/ml streptomycin, and 2 µmol/ml glutamine. […] The suspension was then re-centrifuged at 20,000 g for 60 min at 4 °C. […] Nonspecific binding was determined using 100 µM of XAC. […] a K values are expressed as means ± SEM from (2-4) independent experiments. […]
recordedMetric: A1AR selectivity index
Kindly provide the number alone.

| compound | recordedMetric | observed |
| --- | --- | --- |
| CC(=O)Nc1nc2ccccc2s1 [Compound 1] | A1AR selectivity index | 7.1 |

Attention now turns to another entry.
Ask: Reported A1AR selectivity index, compound CC(C)C(=O)Nc1nc2ccccc2s1 [Compound 3] : ____
Result: 1.6
